# assayed-target: Nb6E (alpaca)
# experiment-description: in-gel fluorescence of the crosslinked product
No end group written: not given here. FAM = fluorescein
value-type: Kd (nM)
One number for each entry, in nM.

(Q) For the binder {FAM}-QADQCAAELARQIS (not fully specified (residue 5)) [FAM-1(NO2)] , what Kd is on record?
(A) 206
